incorporation of 3H thymidine by entry:
System: human Peripheral Blood Mononuclear Cells
Experiment: In vitro activation of human PBMC, tritiated thymidine incorporation
Type: cell-based
Conditions: Peptide 0.1 micro g/ml; three days; Control 370

RESIDUE_SEQUENCE: KKRRETVERE (Hepreceptor peptide) [Rupe312]
incorporation of 3H thymidine: 533 radioactive counts per minute

RESIDUE_SEQUENCE: TEKKRRETV (Hepreceptor peptide) [Rupe19]
incorporation of 3H thymidine: 537 radioactive counts per minute

RESIDUE_SEQUENCE: RETVEREKE (Hepreceptor peptide) [Rupe614]
incorporation of 3H thymidine: 596 radioactive counts per minute

Q: Request the reported incorporation of 3H thymidine associated with TEKKRRETVER (Hepreceptor peptide) [Rupe111]
Result: 633 radioactive counts per minute

Q: Subsequent entry: KRRETVER (Hepreceptor peptide) [Rupe411]
Result: 499 radioactive counts per minute

Q: Subsequent entry: KRRETVEREKE (Hepreceptor peptide) [Rupe414]
Result: 485 radioactive counts per minute
